Origin of measurements: the supplement of paper PMC10567573

Measured protein stability index, listed per entry.
B1: OR3A1 (parent)
chain: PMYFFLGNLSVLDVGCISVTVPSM

# Variants of: B1
# protocol.summary: protein stability index of a GFP-peptide fusion (GPS, HEK-293T) (PSI 1-6); higher = more stable;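 also: lentivirally expressed fusions sorted by FACS into six bins by GFP to DsRed ratio, PSI derived from sequencing read proportions per bin multiplied by bin number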
# condition.details: c terminus: a fixed tail appended
// return a plain number; no unit text

>>> df
    mut               observable  observed
0  C16Q  protein stability index      2.99
1   L9K  protein stability index      2.86
2  V19H  protein stability index      2.77
3  S18F  protein stability index      1.68
4  D13G  protein stability index      2.55
5  T20G  protein stability index      1.69
6   G7F  protein stability index       3.9
7  S23I  protein stability index      2.86

Request the reported protein stability index associated with "V21I" 2.55

And the next one, "M2T" ? 2.15

How about this variant: "T20E" 2.71
